Molecular target: hLXRα (Homo sapiens, UniProt Q13133)
Sequence (Q13133 209-447 limits assumed): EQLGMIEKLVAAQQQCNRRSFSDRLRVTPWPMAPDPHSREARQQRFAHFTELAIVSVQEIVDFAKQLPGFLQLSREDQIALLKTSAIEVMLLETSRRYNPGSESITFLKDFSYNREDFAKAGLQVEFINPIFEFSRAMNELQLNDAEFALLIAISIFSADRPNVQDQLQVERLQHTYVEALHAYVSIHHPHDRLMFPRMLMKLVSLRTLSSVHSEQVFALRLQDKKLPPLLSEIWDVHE
Experiment: luciferase assay with GAL-4 chimeric hLXRα receptor in human embryonic kidney 293 cells
Format: cell-based
Details: LXRα versus LXRβ, GAL4 luciferase assays
experimental readout: LXR isoform selectivity profile

CC(C)[C@@H](C)CC(=O)[C@@H](C)[C@H]1CC[C@H]2C3=CC=C4C[C@@H](O)CC[C@]4(C)[C@H]3CC[C@]12C [Compound 28, 3β-Hydroxyergost-5,7-diene-22-one]
selective LXRα agonists
CC(C)[C@@H](C)[C@@H](O)C[C@@H](C)[C@H]1CC[C@H]2C3=CC=C4C[C@@H](O)CC[C@]4(C)[C@H]3CC[C@]12C [Compound 21, (23S)-3β-Ergost-5,7-diene-3,23-diol]
selective LXRα agonists
CC(C)[C@@H](C)C(=O)C[C@@H](C)[C@H]1CC[C@H]2C3=CC=C4C[C@@H](O)CC[C@]4(C)[C@H]3CC[C@]12C [Compound 27, 3β-Hydroxyergost-5,7-diene-23-one]
selective LXRα agonists

----------
target: hLXRβ (Homo sapiens, UniProt P55055); experiment: luciferase assay with GAL-4 chimeric hLXRβ receptor in human embryonic kidney 293 cells; format: cell-based; conditions: HEK293, 24 h, read-out: LXRβ Efficacy (%) ± SD, % of compound effect versus 8 μM of 22R-HC
Sequence (P55055 222-460 limits assumed): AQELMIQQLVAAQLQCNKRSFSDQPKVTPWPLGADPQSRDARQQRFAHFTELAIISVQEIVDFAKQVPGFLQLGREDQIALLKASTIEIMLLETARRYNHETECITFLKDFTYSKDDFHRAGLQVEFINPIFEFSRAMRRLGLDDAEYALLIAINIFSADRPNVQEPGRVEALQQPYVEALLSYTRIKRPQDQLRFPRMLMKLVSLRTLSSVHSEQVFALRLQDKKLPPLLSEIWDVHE
experimental readout: Emax (%)
// units = %; emit number, no label

CC(C)CC[C@@H](O)[C@@H](C)[C@H]1CC[C@H]2[C@@H]3CC=C4C[C@@H](O)CC[C@]4(C)[C@H]3CC[C@]12C [22R-HC (3), 22(R)-hydroxycholesterol, reference compound]
100

For CC[C@@H](C(C)C)[C@H]1O[C@@H]1[C@@H](C)[C@H]1CC[C@H]2[C@@H]3CC=C4C[C@@H](O)CC[C@]4(C)[C@H]3CC[C@]12C , write its Emax.
142

Could you please provide reported Emax for CC[C@@H](C(C)C)[C@@H]1O[C@H]1[C@@H](C)[C@H]1CC[C@H]2[C@@H]3CC=C4C[C@@H](O)CC[C@]4(C)[C@H]3CC[C@]12C ? Thanks!
36.3

Provide measured Emax value, entry: C=C[C@@](O)(CC[C@@H](C)C1CCC2C3CC=C4C[C@@H](O)CC[C@]4(C)C3CC[C@@]21C)C(C)C (stereo partly drawn) [Compound 12, 24(S)-saringosterol, reference compound]
61

Quickly give me recorded Emax for CC[C@](O)(CC[C@@H](C)[C@H]1CCC2C3CC=C4C[C@@H](O)CC[C@]4(C)C3CC[C@@]21C)C(C)C (stereo partly drawn)
48.4

----------
target: hLXRα (Homo sapiens, UniProt Q13133); assay: luciferase assay with GAL-4 chimeric hLXRα receptor in human embryonic kidney 293 cells; type: cell-based
experimental readout: pEC50
Units for pEC50: none; it is -log10 of a concentration expressed in mol/L.

Give the observed pEC50 of CC[C@](O)(CC[C@@H](C)[C@H]1CCC2C3CC=C4C[C@@H](O)CC[C@]4(C)C3CC[C@@]21C)C(C)C (stereo partly shown) for hLXRα (Homo sapiens, UniProt Q13133).
5.43

----------
biological target: hLXRα (Homo sapiens); assay: luciferase assay with GAL-4 chimeric hLXRα receptor in human embryonic kidney 293 cells; format: cell-based; settings: GAL4-hLXRα luciferase, HEK293; dose-response 32-1 μM; mean of three-five independent experiments; read-out: LXRα EC50 (μM) ± SD
Each entry below carries its recorded EC50.
Numbers only here, please. The scale is µM.

// worked examples, EC50 included
CC(C)CC[C@@H](O)[C@@H](C)[C@H]1CC[C@H]2[C@@H]3CC=C4C[C@@H](O)CC[C@]4(C)[C@H]3CC[C@]12C [22R-HC (3), 22(R)-hydroxycholesterol, reference compound]
6.71
CC(C)[C@@H](C)[C@H](O)C[C@@H](C)[C@H]1CC[C@H]2C3=CC=C4C[C@@H](O)CC[C@]4(C)[C@H]3CC[C@]12C [Compound 23, (23R)-3β-Ergost-5,7-diene-3,23-diol]
15.8
CC[C@@H](C(C)C)[C@@H]1O[C@H]1[C@@H](C)[C@H]1CC[C@H]2[C@@H]3CC=C4C[C@@H](O)CC[C@]4(C)[C@H]3CC[C@]12C [Compound 14]
16.4
CC(C)[C@@H](C)[C@H]1O[C@@H]1[C@@H](C)[C@H]1CC[C@H]2C3=CC=C4C[C@@H](O)CC[C@]4(C)[C@H]3CC[C@]12C [Compound 15]
4.11
CC(C)[C@@H](C)CC(=O)[C@@H](C)[C@H]1CC[C@H]2C3=CC=C4C[C@@H](O)CC[C@]4(C)[C@H]3CC[C@]12C [Compound 28, 3β-Hydroxyergost-5,7-diene-22-one]
8.51

// switching to the query compound
Quickly give me recorded EC50 for CC(C)[C@@H](C)[C@@H]1O[C@H]1[C@@H](C)[C@H]1CC[C@H]2C3=CC=C4C[C@@H](O)CC[C@]4(C)[C@H]3CC[C@]12C [Compound 16]
1.5
